Tested on: LOX IMVI
Test: NCI tumour cell line growth inhibition, 48 h
Calls of active or inactive are those of the source. No stated cut-off is given here; in the data, active = GI50 up to about 1.1 µM and inactive = higher.
parameter measured: GI50

{"compound": "O=C1OC(CN2CCN(c3ccccc3)CC2)CN1C(=S)Nc1ccccc1 (centres undefined)", "tested system": "LOX IMVI", "GI50": "> 100 µM (inactive)"}
{"compound": "S=C1NC2=C(COc3ccccc32)C(c2ccc(Cl)cc2)N1 (centres undefined)", "tested system": "LOX IMVI", "GI50": "16.3 µM (inactive)"}

What does the data say about its GI50? Entry: COc1ccc(C(OCC2OC(n3cc(C)c(=O)[nH]c3=O)CC2n2cc(Cn3cc(Br)c(=O)[nH]c3=O)nn2)(c2ccccc2)c2ccccc2)cc1 (centres undefined)
> 100 µM (inactive)

What does the data say about its GI50? Entry: `O/N=C/[C@H]1COC2(CCCCC2)O1`
> 100 µM (inactive)

What does the data say about its GI50? Entry: `Cc1n[nH]c(=O)n1/N=C/c1cccs1`
> 100 µM (inactive)
